Taken from ChEMBL document CHEMBL1909046.

# EXPERIMENTAL_TARGET: 5-hydroxytryptamine receptor 6 (Homo sapiens)
# Sequence (P50406 whole entry): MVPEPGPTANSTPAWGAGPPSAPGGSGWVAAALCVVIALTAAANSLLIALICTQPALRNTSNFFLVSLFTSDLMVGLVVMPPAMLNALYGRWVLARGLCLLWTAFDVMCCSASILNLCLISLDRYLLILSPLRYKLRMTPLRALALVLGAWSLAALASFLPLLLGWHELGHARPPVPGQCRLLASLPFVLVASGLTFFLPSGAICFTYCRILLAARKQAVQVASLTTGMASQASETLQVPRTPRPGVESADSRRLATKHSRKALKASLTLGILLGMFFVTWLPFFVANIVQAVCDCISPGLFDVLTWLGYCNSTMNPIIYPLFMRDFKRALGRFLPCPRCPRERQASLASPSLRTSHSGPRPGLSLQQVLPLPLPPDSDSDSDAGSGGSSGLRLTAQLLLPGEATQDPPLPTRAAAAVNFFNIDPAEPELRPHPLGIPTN
# Format: cell membranes, HeLa, Membrane
# CONDITION_CONTEXT: read-out: Ki
pKi: −log10 of the molar value.
Answer 0 if pKi is under 6, and 1 if it is 6 or more.

INSERT INTO results (compound, assigned_class) VALUES
  ('CC(N)Cc1c[nH]c2ccc(OCc3cccs3)cc12 (stereo not given)', 1),
  ('CCN(CC)C(=S)SSC(=S)N(CC)CC', 0),
  ('c1ccc2sc(SSc3nc4ccccc4s3)nc2c1 [BENZOTHIAZYL DISULFIDE]', 0),
  ('CC(C)(c1ccc(O)cc1)c1ccc(O)cc1', 0),
  ('CN1C[C@H](CNC(=O)OCc2ccccc2)C[C@@H]2c3cccc4c3c(cn4C)C[C@H]21', 1),
  ('CNCCCC12CCC(c3ccccc31)c1ccccc12', 1),
  ('Clc1cc(Cl)c(OCC#CI)cc1Cl', 0);
